Entries and their measured inhibition follow.
measurement.description: inhibitors of TNFa-induced NFkB p65 translocation, primary screen, imaging, HUVEC, MLSMR starter and 10KST1 sets (AID 438);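 further: compound added about 3h40 before a 20 min TNFalpha stimulation; signal is the nuclear over cytoplasmic p65 intensity ratio per well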
test.context: HUVEC TNFa-induced p65 nuclear translocation; at 2 µM, active compounds read high, 0% TNFa-plus-vehicle, 100% no-TNFa wells
Your answer is read as %, so omit the unit and give the number.

Here's what some known entries look like.
• FC(F)Oc1ccc(-c2csc(Cc3nnc4n3CCCCC4)n2)cc1 = -3.5
• O=C(Cn1ncc2c(=O)oc3ccccc3c21)NCCCN1CCCC1=O = -9.2
• O=C(Nc1ccccc1C(=O)N1CCOCC1)C1COc2ccccc2O1 (stereo unspecified) = 3.3
• Cc1cnc(NC(=O)CSc2nnc(COc3c(C)cccc3C)o2)s1 = 10.9
• Cn1nnnc1SCC(=O)N1CCN(c2cccc(Cl)c2)CC1 = -2.9

Would you kindly look at the next entry?
Using known records, supply inhibition for COc1cccc(-c2csc(N3CCN(CC(=O)Nc4ccc5c(c4)OCO5)CC3)n2)c1
3.1
